Target: human NK3 receptor (Homo sapiens, UniProt P29371)
Construct: expressed in transfected cells; membranes prepared from them
Sequence (P29371 whole entry): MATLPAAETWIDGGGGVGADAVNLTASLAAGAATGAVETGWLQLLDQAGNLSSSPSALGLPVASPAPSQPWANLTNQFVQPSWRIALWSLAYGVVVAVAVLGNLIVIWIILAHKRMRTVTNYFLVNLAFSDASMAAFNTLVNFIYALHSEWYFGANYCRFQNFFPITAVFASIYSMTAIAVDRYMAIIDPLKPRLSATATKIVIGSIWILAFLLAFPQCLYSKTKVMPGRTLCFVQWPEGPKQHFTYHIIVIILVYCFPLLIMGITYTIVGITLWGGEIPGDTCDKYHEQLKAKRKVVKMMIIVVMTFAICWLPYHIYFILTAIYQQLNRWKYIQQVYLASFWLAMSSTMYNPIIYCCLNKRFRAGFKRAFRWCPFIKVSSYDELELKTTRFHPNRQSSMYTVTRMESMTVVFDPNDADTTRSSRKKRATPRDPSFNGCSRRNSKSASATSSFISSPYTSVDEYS
Assay: NK3 receptor binding assay (SPA-based competition binding with 125I-NKB); note: competition with app 0.02 nM 125I-NKB
Details: read-out: Affinity (Ki/nM)
Entries whose Ki is below 30 nM take Condition met; entries at or above 30 nM take Condition not met.

Illustrative cases are given below, each with its answer.
1) Cc1c(C(=O)N[C@H](c2cccc(F)c2)C2CC2)c2cccc(F)c2c(=O)n1[C@@H]1CCN(C)C1 | Condition not met
2) CC[C@H](NC(=O)c1c(C)n(CCSC)c(=O)c2ccccc12)c1ccccc1 | Condition not met
3) CC[C@H](NC(=O)c1c(C)n(NCC(C)(C)C)c(=O)c2ccccc12)c1ccccc1 | Condition not met

INPUT: # TODO verify Ki < 30 nM strictly for this molecule: "CC[C@H](NC(=O)c1c(C)n(NCC(C)C)c(=O)c2ccccc12)c1ccccc1"
OUTPUT: Condition not met

INPUT: # TODO verify Ki < 30 nM strictly for this molecule: "CCCn1c(CN2CCNCC2)c(C(=O)N[C@H](c2cccc(F)c2)C2CCC2)c2cccc(F)c2c1=O"
OUTPUT: Condition met

INPUT: # TODO verify Ki < 30 nM strictly for this molecule: "CCNn1c(C)c(C(=O)N[C@@H](CC)c2ccccc2)c2cccc(Cl)c2c1=O"
OUTPUT: Condition not met

INPUT: # TODO verify Ki < 30 nM strictly for this molecule: "CCNn1c(C)c(C(=O)N[C@@H](CC)c2ccccc2)c2cccc(F)c2c1=O"
OUTPUT: Condition not met

INPUT: # TODO verify Ki < 30 nM strictly for this molecule: "Cc1c(C(=O)N[C@H](c2cccc(F)c2)C2CCC2)c2cccc(F)c2c(=O)n1C[C@H]1CCCN1"
OUTPUT: Condition met
